- Tested on: E21 (patient-derived glioblastoma stem cells of mesenchymal subtype)
- Assay Overview: phenotypic distance (Euclidean, principal components) from DMSO controls (arbitrary units); higher = stronger morphological change
- Condition Parameters: 12.3 nM; exposure time: 72 h
Structures can show the parent of a compound that is named as a salt.
Measured Metric: phenotypic distance

[Q] Param item = N=C(N)NCc1cccc(I)c1 [Iobenguane sulfate] ; retrieve measured phenotypic distance.
[A] 0.695

[Q] Please give the measured phenotypic distance for this compound: COc1nc(C)nc(Cl)c1NC1=NCCN1 [Moxonidine]
[A] 0.442

[Q] GET /values?readout=phenotypic distance&item= Cc1ccc(NC(=O)c2ccc3c(c2)OCCO3)cc1NC(=O)c1ccc2nc(OCCN3CCCC3)ccc2c1
[A] 3.3

[Q] For the compound CN(C(=O)CN(CCO)CC(=O)N(C)C(C)(C)Cc1ccccc1)C(C)(C)Cc1ccccc1 [Oxethazaine] , what phenotypic distance is on record?
[A] 0.301

---

- System: E34 (patient-derived glioblastoma stem cells of proneural subtype)
- Assay Overview: surviving fraction (nuclei count normalised to DMSO); higher = more cells surviving (less toxic)
- Condition Parameters: 3000 nM; exposure time: 72 h
Consider the following molecules; for each one, report its surviving fraction.
Reply with just the number.

[Q] Dear colleague, I am looking for the recorded surviving fraction of the following molecule: CCC(C)n1ncn(-c2ccc(N3CCN(c4ccc(OCC5COC(Cn6cncn6)(c6ccc(Cl)cc6Cl)O5)cc4)CC3)cc2)c1=O (stereo not drawn) [Itraconazole]
[A] 0.701

[Q] Could you share which surviving fraction value was measured for Oc1ccc(OCc2ccccc2)cc1 [Monobenzone] ?
[A] 1.07

[Q] Suppose we examine the molecule Cc1cc(Nc2cc(N3CCN(C)CC3)nc(Sc3ccc(NC(=O)C4CC4)cc3)n2)n[nH]1 [Tozasertib] ; what surviving fraction value has been reported?
[A] 0.722

---

Kindly state phenotypic distance for each of the entries shown.
- System: E34
- Assay Overview: phenotypic distance (Euclidean, principal components) from DMSO controls (arbitrary units); higher = stronger morphological change
- Condition Parameters: 1000 nM; exposure time: 72 h
Counter-ions that a name gives are not always drawn.

[Q] Return reported phenotypic distance; argument: C=C[C@H]1CN2CC[C@H]1C[C@@H]2[C@@H](O)c1ccnc2ccc(OC)cc12 [Quinidine hydrochloride monohydrate]
[A] 0.516

[Q] Fill in: phenotypic distance of CN(C(=O)CN(CCO)CC(=O)N(C)C(C)(C)Cc1ccccc1)C(C)(C)Cc1ccccc1 is ___
[A] 0.595

[Q] Recorded phenotypic distance of OC[C@H]1O[C@@H](Oc2ccc(O)cc2)[C@H](O)[C@@H](O)[C@@H]1O , please.
[A] 0.496

[Q] phenotypic distance lookup needed for OC[C@H]1NC[C@H](O)[C@@H](O)[C@@H]1O , thanks.
[A] 0.619

[Q] Bench note: what phenotypic distance did Cc1cc(C(C)(C)CC(C)(C)C)ccc1OCCOCC[N+](C)(C)Cc1ccccc1 [Methyl benzethonium chloride] show?
[A] 1.37

[Q] Look up phenotypic distance: NCCNc1ccc(NCCN)c2c1C(=O)c1ccncc1C2=O [Pixantrone dimaleate]
[A] 3.22

[Q] Which value of phenotypic distance has been reported for Cc1cc(/C=C/c2ccc3cc(N(C)C)ccc3[n+]2C)c(C)n1-c1ccccc1 [Pyrvinium pamoate] in the records?
[A] 4.06

[Q] Query: phenotypic distance; subject: Clc1ccc(C(Cn2ccnc2)OCc2ccsc2Cl)c(Cl)c1 (stereo not drawn)
[A] 0.943

FYI, the data here is from the supplement of paper PMC13207355.
